# protocol: Human HepG2 cell viability assay in 384 well format
# Type: toxicity, cell-based
# Parameters: dose 125 nL, time 70.5 hour; concentration not given beside the values
# conditionParameters: HepG2 cells, read-out: Inhibition
quantity: cytotoxicity at 70.5 h (%)
Unit % implied. Number only.

Asked: Identify the reported cytotoxicity at 70.5 h for the following entry. "CCOC(=O)Cc1csc(NC(=O)c2cc3n(n2)CCCO3)n1"
Given back: -2.3

Asked: Note cytotoxicity at 70.5 h for the molecule shown: "COc1ncccc1CNC(=O)c1c(C)oc(C)c1C"
Given back: -8.16

Asked: Let me know recorded cytotoxicity at 70.5 h for "O=C(c1cscn1)N1CC[C@H]2[C@@H]1CCC(=O)N2c1ccccc1" , thanks.
Given back: 1.24

Asked: Dear colleague, please send me the reported cytotoxicity at 70.5 h for "CS(=O)(=O)N1CCC2(CCN(C(=O)c3cccs3)CC2)CC1" when you can.
Given back: -8.9

Asked: // fetch cytotoxicity at 70.5 h given entry CC(C)c1noc(CCC(=O)NCC2CCOC2)n1 (centres undefined)
Given back: -2.41

Asked: Supply cytotoxicity at 70.5 h value. Item: "CN(Cc1nnc2n1CCC2)C(=O)CCc1ccc2c(c1)OCO2"
Given back: -7.61

Asked: Entry "CN(Cc1n[nH]c2c1CCC2)c1nc(C2CCCC2)nc2c1CNC2" needs its cytotoxicity at 70.5 h filled in; supply it.
Given back: -8.94

Asked: Tell us which cytotoxicity at 70.5 h value is on record for Cc1ccc(OCC(O)CN(C)CC(=O)Nc2cc(C)on2)c(C)c1 (centres undefined)
Given back: 10.1

Asked: Return cytotoxicity at 70.5 h for the following molecule: Cc1ccc(C(=O)N2CCOC(c3nc(-c4ncccn4)no3)C2)cc1 (centres undefined)
Given back: -2.85

Asked: For the molecule CC(Oc1ccccc1C(F)(F)F)C(=O)NCC(N)=O (centres undefined) , give its measured cytotoxicity at 70.5 h value.
Given back: -1.2

Asked: Identify cytotoxicity at 70.5 h associated with the molecule COc1ccc(F)cc1C(C)NC(=O)Nc1nncs1 (centres undefined)
Given back: 4.1

Asked: Return cytotoxicity at 70.5 h (reported value) for this molecule: "c1ccc(-c2noc(CN3CCC(c4ccn[nH]4)CC3)n2)cc1"
Given back: -14.9

Asked: Return reported cytotoxicity at 70.5 h. Input molecule: CC(CNC(=O)N1CCN(c2ncccn2)CC1)Cc1cccs1 (centres undefined)
Given back: 17.5

Asked: Consider the molecule Cc1cnn(CC2CCN(CC(O)c3ccccc3)CC2)c1 (centres undefined) and give its recorded cytotoxicity at 70.5 h.
Given back: 13.9

Asked: # return recorded cytotoxicity at 70.5 h for entry "Cc1c(C(=O)NS(=O)(=O)c2ccsc2)cnn1CC(C)C"
Given back: 4.87

Asked: Output cytotoxicity at 70.5 h of "Cc1ccc(NC2CCN(C(=O)c3ccc(Cl)o3)CC2)nn1"
Given back: 34.4

Asked: Return cytotoxicity at 70.5 h for the following molecule: Cn1cc(CC2CC(=O)N(Cc3ccccc3OC(F)F)C2=O)cn1 (centres undefined)
Given back: -0.223

Asked: Check the records and state cytotoxicity at 70.5 h for "CC(C)c1ncncc1C(=O)N1CCN(Cc2ccsc2)CC1"
Given back: -10.1

Asked: Please indicate cytotoxicity at 70.5 h recorded for "Cc1ccc(CN2C[C@H]3C(=O)N(CC4CC4)C[C@@]3(C(=O)O)C2)c(F)c1F"
Given back: 9.58

Asked: Read off the recorded cytotoxicity at 70.5 h for "CCNc1ncc(C(=O)N(C)Cc2nc3cc(Cl)ccc3[nH]2)cn1"
Given back: -13.7

Asked: Tell me measured cytotoxicity at 70.5 h for "CN(Cc1ccccc1)c1ncccc1CNC1CCCC1" please.
Given back: -1.34

Asked: Please give the documented cytotoxicity at 70.5 h of COc1ccc(CNCC2CCN(c3ccccc3OC)C2)cc1O (centres undefined)
Given back: 5.43

Asked: Specify measured cytotoxicity at 70.5 h for CCOc1cncc(N2CCCC2c2nnc3n2CCCCC3)n1 (centres undefined) .
Given back: -3.47

Asked: Using the record for O=C1CC(NCc2ncc[nH]2)CN1CCc1cccc(Cl)c1 (centres undefined) , state its measured cytotoxicity at 70.5 h.
Given back: -8.16
